tested on: Mucor; assay: Antifungal activity against Mucor at after 24 hrs by disc diffusion method; type: functional
Endpoint: MIC

- Item Smiles: "N#Cc1c(N)nc2c(c1-c1ccc(F)cc1)C(=O)CCC2"
  MIC: "60 µg/disc"
- Item Smiles: "CC(=O)N(C(C)=O)c1nc2c(c(-c3ccc(C)cc3)c1C#N)C(=O)CCC2"
  MIC: "40 µg/disc"

Note: attention shifts to another entry.
q: # input molecule: C[C@@H]1[C@H](O)[C@@H](C)/C=C/C=C/C=C/C=C/C=C/C=C/C=C/[C@H](O[C@@H]2O[C@H](C)[C@@H](O)[C@H](N)[C@@H]2O)C[C@@H]2O[C@](O)(C[C@@H](O)C[C@@H](O)[C@H](O)CC[C@@H](O)C[C@@H](O)CC(=O)O[C@H]1C)C[C@H](O)[C@H]2C(=O)O ; wanted: its MIC
a: 40 µg/disc

###

Listed here: items and their measured zone of inhibition at 60 µg/disc.
tested on: Fusarium oxysporum; test: Antifungal activity against Fusarium oxysporum 1 at 60 ug/disc after 24 hrs by disc diffusion method; type: functional; details: read-out: IZ
The answer is to be given in mm; state only the numeric part.

Some solved entries appear below for comparison.
- Compound: "N#Cc1c(N)nc2c(c1-c1ccc(F)cc1)C(=O)CCC2"
  zone of inhibition at 60 µg/disc, mm: 3
- Compound: "Cc1ccc(-c2c(C#N)c(N)nc3c2C(=O)CCC3)cc1"
  zone of inhibition at 60 µg/disc, mm: 3
- Compound: "COc1cc(-c2c(C#N)c(N)nc3c2C(=O)CCC3)cc(OC)c1OC"
  zone of inhibition at 60 µg/disc, mm: 2

Note: attention shifts to another entry.
q: # input compound: C[C@@H]1[C@H](O)[C@@H](C)/C=C/C=C/C=C/C=C/C=C/C=C/C=C/[C@H](O[C@@H]2O[C@H](C)[C@@H](O)[C@H](N)[C@@H]2O)C[C@@H]2O[C@](O)(C[C@@H](O)C[C@@H](O)[C@H](O)CC[C@@H](O)C[C@@H](O)CC(=O)O[C@H]1C)C[C@H](O)[C@H]2C(=O)O [AMPHOTERICIN B] ; wanted: its zone of inhibition at 60 µg/disc
a: 6

###

system: Fusarium oxysporum; assay: Antifungal activity against Fusarium oxysporum 2 at 40 ug/disc after 24 hrs by disc diffusion method; format: functional
The source made the active and inactive calls. The calls are words filed in the database; no cut-off is given here.
Endpoint: Activity

Some solved entries appear below for comparison.
- Item Smiles: "N#Cc1c(N)nc2c(c1-c1cccc(NC(=O)Nc3cccc(-c4c(C#N)c(N)nc5c4C(=O)CCC5)c3)c1)C(=O)CCC2"
  Measurement Target: "Fusarium oxysporum"
  Activity: "inactive"
- Item Smiles: "COc1ccc(NC(=O)Nc2cccc(-c3c(C#N)c(N)nc4c3C(=O)CCC4)c2)cc1"
  Measurement Target: "Fusarium oxysporum"
  Activity: "inactive"
- Item Smiles: "CC(=O)Nc1nc2c(c(-c3ccc(C)cc3)c1C#N)C(=O)CCC2"
  Measurement Target: "Fusarium oxysporum"
  Activity: "inactive"
- Item Smiles: "N#Cc1c(N)nc2c(c1-c1ccc(Cl)cc1)C(=O)CCC2"
  Measurement Target: "Fusarium oxysporum"
  Activity: "inactive"
- Item Smiles: "CC(=O)N(C(C)=O)c1nc2c(c(-c3ccc(C)cc3)c1C#N)C(=O)CCC2"
  Measurement Target: "Fusarium oxysporum"
  Activity: "inactive"
- Item Smiles: "N#Cc1c(N)nc2c(c1-c1ccc(F)cc1)C(=O)CCC2"
  Measurement Target: "Fusarium oxysporum"
  Activity: "inactive"
- Item Smiles: "Cc1ccc(-c2c(C(N)=O)c(N)nc3c2C(=O)CCC3)cc1"
  Measurement Target: "Fusarium oxysporum"
  Activity: "inactive"

q: # input compound: N#Cc1c(N)nc2c(c1-c1ccc([N+](=O)[O-])cc1)C(=O)CCC2 ; wanted: its Activity
a: inactive
